Reference source for all entries: PubChem BioAssay (NCI)

System: DU-145 prostate
Assay: NCI-60 one-dose screen, 48 h (100 = growth as untreated, 0 = no growth, -100 = all killed)
Settings: 10 µM unless noted
The panel holds about 83,000 compounds, 20% with a hit somewhere; the sample as a whole holds those more often.
Listed here are compounds together with their documented growth.
metricName: growth (%)

[[record]]
compound = "O=[N+]([O-])c1ccc(-c2ncc(-c3ccc(O)cc3O)[nH]2)cc1"
metricname = "growth"
unitname = "%"
testvalue = 143

[[record]]
compound = "Brc1ccc(-c2nc3ccccc3s2)cc1"
metricname = "growth"
unitname = "%"
testvalue = 108

[[record]]
compound = "N=C(c1ccccc1)N(Cc1ccccc1)Cc1ccccc1"
metricname = "growth"
unitname = "%"
testvalue = 111

[[record]]
compound = "CCN(CC)C(=O)C1(C)CCCC2(C)c3cc(OC(C)=O)ccc3CCC12 (configuration not stated)"
metricname = "growth"
unitname = "%"
testvalue = 99.9

[[record]]
compound = "Nc1ccc(S(=O)(=O)Nc2cc(F)cc(F)c2)cc1"
metricname = "growth"
unitname = "%"
testvalue = 94.5

[[record]]
compound = "O=C(NCCO)C(F)(F)F"
metricname = "growth"
unitname = "%"
testvalue = 109

[[record]]
compound = "Cn1cnc2nc[nH]c2c1=S"
metricname = "growth"
unitname = "%"
testvalue = 112

[[record]]
compound = "COc1ccc(-c2nc(N)n(C(=S)Nc3ccccc3)n2)cc1"
metricname = "growth"
unitname = "%"
testvalue = 108

[[record]]
compound = "N#Cc1c2cccnc2c2nnc3cc(Cl)c(Cl)cc3n12"
metricname = "growth"
unitname = "%"
testvalue = 36.4

[[record]]
compound = "CCCC(=O)Nc1ccccc1C(=O)O"
metricname = "growth"
unitname = "%"
testvalue = 97.6

[[record]]
compound = "C/C=C(/C)C(=O)OC1C=C(CO)C(=O)C(OC(=O)C(C)(O)C(C)Cl)C1C(C)C (configuration not stated)"
metricname = "growth"
unitname = "%"
testvalue = 3.58

[[record]]
compound = "CCCCCCCCCCCCCCCCNC(=O)Nc1ccc(C)c(NC(=O)NCCCCCCCCCCCCCCCC)c1"
metricname = "growth"
unitname = "%"
testvalue = 112

[[record]]
compound = "CCCCCCCCC(=O)Nc1ccc(O)cc1"
metricname = "growth"
unitname = "%"
testvalue = 103

[[record]]
compound = "C/C(=C\\c1ccc2ccccc2c1)[N+](=O)[O-]"
metricname = "growth"
unitname = "%"
testvalue = 27

[[record]]
compound = "CCn1cc(C(=O)O)c(=O)c2cc(F)c(N3CCN(S(=O)(=O)c4ccc(Cl)cc4)CC3)cc21"
metricname = "growth"
unitname = "%"
testvalue = 31.7

[[record]]
compound = "CC(C)OC(=O)c1ccc2n1CCCc1cnc(Nc3ccccc3)nc1-2"
metricname = "growth"
unitname = "%"
testvalue = 87.2

[[record]]
compound = "COc1cc(-c2nn(-c3ccc(NC(=O)Nc4ccc(Cl)c(Cl)c4)cc3)cc2-c2ccncc2)ccc1Cl"
metricname = "growth"
unitname = "%"
testvalue = 40.8

[[record]]
compound = "CCOC(=O)C1CCCN1C(=O)C1(NC(C)=O)CCCC1 (configuration not stated)"
metricname = "growth"
unitname = "%"
testvalue = 103

[[record]]
compound = "CC(=O)Nc1nc(C)c(C(=O)N/N=C/N2CCCCC2)s1"
metricname = "growth"
unitname = "%"
testvalue = 137

[[record]]
compound = "CCCC[N+](C)(N)CCCC"
metricname = "growth"
unitname = "%"
testvalue = 111

[[record]]
compound = "CC1=C[C@@H]2c3c(c(O)c(O)c4oc5cc(O)cc(O)c5c(=O)c34)[C@@H](c3cc(O)c(O)c4oc5cc(O)cc(O)c5c(=O)c34)[C@@H]2C(C)(C)C1"
metricname = "growth"
unitname = "%"
testvalue = 20.7

[[record]]
compound = "CC(C)OC(=O)[C@H](C)N[P@@](=O)(OC[C@@]1(C)O[C@@H](n2cc(F)c(N)nc2=O)C[C@@H]1O[P@](=O)(N[C@@H](C)C(=O)OC(C)C)Oc1ccccc1)Oc1ccccc1"
metricname = "growth"
unitname = "%"
testvalue = 103


----------
Tested on: K-562 leukemia
Assay: NCI-60 one-dose screen, 48 h
Conditions: 10 µM unless noted
About 83,000 compounds went through this panel and 20% of them were active in at least one assay; those are over-represented in the sample as a whole. Activity calls are given as the source filed them. The calls were made as follows: active = growth percent below 10; inactive = the rest.
Outcome codes: active, inactive

[[record]]
molecule = "C[C@@H](c1ccc2c(c1)[nH]c1ccc(Cl)cc12)c1nc2ccccc2[nH]1"
grouplabel = "inactive"

[[record]]
molecule = "COC(=O)/C(Br)=C/c1c[nH]c2ccc(Br)cc12"
grouplabel = "inactive"

[[record]]
molecule = "O=C(Nc1ccc(Cl)c(Cl)c1)O/N=C\\c1c(Cl)ccc([N+](=O)[O-])c1Cl"
grouplabel = "active"

[[record]]
molecule = "CCOC(=O)c1c(C)oc2ncnc(Nc3ccc(NC(=O)Nc4ccc(CC)cc4)cc3)c12"
grouplabel = "inactive"

[[record]]
molecule = "CCCCCCCCCCCCCCCCNC(=O)Nc1ccc(C)c(NC(=O)NCCCCCCCCCCCCCCCC)c1"
grouplabel = "inactive"

[[record]]
molecule = "Cc1ccc(OCCn2ccc(=O)n(CCOc3ccc(Cl)cc3C(=O)c3cc(C)cc(C)c3)c2=O)cc1"
grouplabel = "inactive"

[[record]]
molecule = "CC(C)OC(=O)Nn1cnc2ccccc21"
grouplabel = "inactive"

[[record]]
molecule = "CCN(CCO)CCNc1ccc(C)c2sc3cc(OC)ccc3c(=O)c12"
grouplabel = "inactive"

[[record]]
molecule = "O=S(=O)(Cc1cccc2c(CS(=O)(=O)c3ccc(Cl)cc3)cccc12)c1ccc(Cl)cc1"
grouplabel = "inactive"

[[record]]
molecule = "N#CC1=C(N2CCOCC2)NC2c3ccccc3Sc3ccccc3N2C1=N (stereo unspecified)"
grouplabel = "inactive"

[[record]]
molecule = "COC(=O)c1ccc2[nH]c(O)c(C(=Nc3ccc(N(C)C(=O)CN4CCN(C)CC4)cc3)c3ccc(CCO)cc3)c2c1"
grouplabel = "active"

[[record]]
molecule = "CC(=O)Nc1ccc(S(=O)(=O)Cl)cc1"
grouplabel = "inactive"

[[record]]
molecule = "COc1ccc2oc(=O)cc(CN3C(=O)S/C(=C\\c4ccc(Cl)cc4)C3=O)c2c1"
grouplabel = "inactive"

[[record]]
molecule = "COc1cc(CNC(=O)CCCC/C=C/C(C)C)ccc1OCc1nnc(Nc2ccccc2F)o1"
grouplabel = "inactive"

[[record]]
molecule = "Cc1nc(N)sc1C(=O)NCCO"
grouplabel = "inactive"

[[record]]
molecule = "O=C(/C=C/c1ccc(Cl)cc1)c1ccc(Cl)cc1"
grouplabel = "inactive"

[[record]]
molecule = "Oc1ccc2ccccc2c1/C=N\\Nc1ccccn1"
grouplabel = "inactive"

[[record]]
molecule = "O=C(Nc1ccc(-n2cc(-c3ccncc3)c(-c3ccc(Cl)c(O)c3)n2)cc1)c1cc(C(F)(F)F)cc(C(F)(F)F)c1"
grouplabel = "inactive"

[[record]]
molecule = "CCCNC(=O)Oc1ccc(/C(=C(/C)Cc2ccc(OC)cc2)c2ccc(OCCN3CCCCC3)cc2)cc1"
grouplabel = "inactive"

[[record]]
molecule = "Cc1ccc([C@@H]2C[C@H](O)Cc3ccccc3N2)s1"
grouplabel = "inactive"

[[record]]
molecule = "CCCCCCN(CCCCCC)CCC(=O)Nc1ccc(S(=O)(=O)c2ccc(NC(=O)CCN(CCCCCC)CCCCCC)cc2)cc1"
grouplabel = "active"

[[record]]
molecule = "CCOC(=O)NNc1[nH]c(-c2ccc(OC)cc2)cc1C#N"
grouplabel = "inactive"

[[record]]
molecule = "NC(=O)c1c(Nc2ccccc2)nn2cc(-c3nc4ccccc4s3)c(N)nc12"
grouplabel = "inactive"

[[record]]
molecule = "CCCCCCCCCCCC(=O)OC(C)C(=O)Nc1ccccc1 (stereo unspecified)"
grouplabel = "inactive"

[[record]]
molecule = "CCOC(=O)c1cc(-c2ccc(OC)cc2)[nH]c1NNC(=O)CCOC"
grouplabel = "inactive"

[[record]]
molecule = "Nc1ccc(S(=O)(=O)Nc2cc(F)cc(F)c2)cc1"
grouplabel = "inactive"

[[record]]
molecule = "CCOC(=O)C1C(=O)C(=O)N(C(C)C)C1C(=O)OCC (stereo unspecified)"
grouplabel = "inactive"

[[record]]
molecule = "CCOC(=O)c1c2c(cn1Cc1ccccc1)-c1oncc1CC2"
grouplabel = "inactive"

[[record]]
molecule = "CSc1nc(N)n2nccc2n1"
grouplabel = "inactive"

[[record]]
molecule = "N#Cc1c(N)nc(Nc2nc3ccccc3[nH]2)nc1-c1ccc(Cl)cc1"
grouplabel = "inactive"

[[record]]
molecule = "COc1cc2ncnc(Nc3ccc4c(cnn4C(=O)Nc4ccccc4)c3)c2cc1OC"
grouplabel = "inactive"

[[record]]
molecule = "COc1ccc2cc(C(C)C(=O)Nc3ccc(S(=O)(=O)Nc4cc(C)on4)cc3)ccc2c1 (stereo unspecified)"
grouplabel = "inactive"

[[record]]
molecule = "O=C(Nc1ccc(-n2cc(-c3ccncc3)c(-c3ccc(Cl)c(O)c3)n2)cc1)c1ccc(Cl)c(C(F)(F)F)c1"
grouplabel = "active"

[[record]]
molecule = "c1ccc2[nH]c(-c3ccc(OCCCCCOc4ccc(-c5nc6ccccc6[nH]5)cc4)cc3)nc2c1"
grouplabel = "active"

[[record]]
molecule = "NNC(=O)CNc1ccc2ccccc2c1"
grouplabel = "inactive"

[[record]]
molecule = "CCC(CCCN1C(=O)c2ccccc2C1=O)Nc1cc(OC)cc2cccnc12 (stereo unspecified)"
grouplabel = "inactive"

[[record]]
molecule = "COc1cc2cn3c4ccc(O)cc4[nH]c(=O)c3c2cc1OC"
grouplabel = "active"

[[record]]
molecule = "FC(F)(F)c1cccc(-c2[nH]ncc2-c2nnnn2-c2ccccc2)c1"
grouplabel = "inactive"

[[record]]
molecule = "COc1cc(-c2nn(-c3ccc(NC(=O)Nc4cc(C(F)(F)F)cc(C(F)(F)F)c4)cc3)cc2-c2ccncc2)ccc1Cl"
grouplabel = "inactive"

[[record]]
molecule = "OCCN1CCCN(CCCN2c3ccccc3Sc3ccc(C(F)(F)F)cc32)CC1"
grouplabel = "active"

[[record]]
molecule = "Cc1cc2c(-c3nc4ccccc4[nH]3)c(O)c(O)cc2c(O)c1-c1c(C)cc2c(-c3nc4ccccc4[nH]3)c(O)c(O)cc2c1O"
grouplabel = "active"

